- test target: Inositol-trisphosphate 3-kinase B (Homo sapiens)
- Sequence (P27987 whole entry): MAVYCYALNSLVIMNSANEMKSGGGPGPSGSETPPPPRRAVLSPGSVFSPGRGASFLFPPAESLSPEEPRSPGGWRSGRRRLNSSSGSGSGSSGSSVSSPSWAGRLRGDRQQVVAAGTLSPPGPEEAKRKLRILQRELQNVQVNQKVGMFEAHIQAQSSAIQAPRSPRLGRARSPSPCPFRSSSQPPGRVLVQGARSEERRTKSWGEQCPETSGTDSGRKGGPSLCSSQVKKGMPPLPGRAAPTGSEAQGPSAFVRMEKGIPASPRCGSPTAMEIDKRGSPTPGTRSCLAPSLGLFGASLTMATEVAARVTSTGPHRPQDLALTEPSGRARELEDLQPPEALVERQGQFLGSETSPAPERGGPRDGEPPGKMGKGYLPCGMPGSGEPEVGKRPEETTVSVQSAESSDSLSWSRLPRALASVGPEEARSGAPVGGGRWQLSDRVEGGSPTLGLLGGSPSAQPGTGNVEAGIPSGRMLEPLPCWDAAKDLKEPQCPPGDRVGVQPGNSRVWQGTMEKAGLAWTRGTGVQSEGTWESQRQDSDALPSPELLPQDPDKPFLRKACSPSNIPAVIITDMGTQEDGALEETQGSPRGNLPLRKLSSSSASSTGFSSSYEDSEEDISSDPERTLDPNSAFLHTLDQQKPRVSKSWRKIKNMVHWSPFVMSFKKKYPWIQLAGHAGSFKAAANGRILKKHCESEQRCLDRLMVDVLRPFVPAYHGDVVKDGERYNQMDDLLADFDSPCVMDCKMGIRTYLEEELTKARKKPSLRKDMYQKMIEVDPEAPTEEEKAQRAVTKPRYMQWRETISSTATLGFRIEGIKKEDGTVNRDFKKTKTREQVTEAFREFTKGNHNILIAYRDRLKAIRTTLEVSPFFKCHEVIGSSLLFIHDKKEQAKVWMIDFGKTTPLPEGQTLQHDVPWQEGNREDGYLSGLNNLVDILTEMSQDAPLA
- assay comment: Inhibition of ITPKb in human Jurkat cells assessed as reduction in conversion of IP3 to IP4 using [3H]-myo-inositol incubated for 5 mins by beta-RAM radio-HPLC method
measurement kind: IC50

> print(dat)
                                   compound  reported.value
1  O=c1[nH]c(=O)c2cc(-c3n[nH]cc3CN3C4CCC3CN(c3ccc(C(F)(F)F)cn3)C4)ccc2o1        < 500 nM
2  O=C1NCc2cc(-c3n[nH]cc3CN3CCN(c4ccc(C(F)(F)F)cn4)[C@H](C(F)(F)F)C3)ccc2O1        < 500 nM
3  O=C1Cc2ccc(-c3n[nH]cc3CN3CCCN(c4ccc(C(F)(F)F)cn4)CC3)cc2CN1        < 500 nM

Problem: Quick check: IC50 on Inositol-trisphosphate 3-kinase B (Homo sapiens), item C[C@@H]1CN(Cc2c[nH]nc2-c2ccc3c(c2)CNC(=O)N3)CCN1c1ccc(C(F)(F)F)cn1 ?
Solution: < 500 nM

Problem: What about O=C1NCc2cc(-c3n[nH]cc3CN3CCN(c4ccc(C(F)(F)F)cn4)CC3)ccc2O1 ?
Solution: < 500 nM

Problem: What about C[C@H]1CN(Cc2c[nH]nc2-c2ccc3c(c2)CNC(=O)O3)CCN1c1ccc(C(F)(F)F)cn1 ?
Solution: < 500 nM

Problem: What about O=C1NCc2cc(-c3n[nH]cc3CN3C4CC3CN(c3ccc(C(F)(F)F)cn3)C4)ccc2O1 ?
Solution: < 500 nM

Problem: What about C[C@H]1CN(Cc2c[nH]nc2-c2ccc3oc(=O)[nH]c(=O)c3c2)CCN1c1ccc(C(F)(F)F)cn1 ?
Solution: < 500 nM

Problem: What about Cc1cccc(N2CCN(Cc3c[nH]nc3-c3ccc4[nH]c(=O)oc4c3)CC2)c1C ?
Solution: < 500 nM

Problem: What about O=C1NCc2cc(-c3n[nH]cc3CN3CCN(c4ccc(C(F)(F)F)cn4)C(C(F)(F)F)C3)ccc2O1 (stereo unspecified) ?
Solution: < 500 nM

Problem: What about C[C@@H]1CN(Cc2c[nH]nc2-c2ccc3c(c2)CNC(=O)O3)CCN1c1cc(C#N)ccn1 ?
Solution: < 500 nM

Problem: What about C[C@@H]1CN(Cc2c[nH]nc2-c2ccc3c(c2)C(=O)NC(=O)C3)CCN1c1ccc(C(F)(F)F)cn1 ?
Solution: < 500 nM

* * *

Entries and their IC50
- test target: Kinase (Mus musculus)
- Sequence (B2RXC2 whole entry): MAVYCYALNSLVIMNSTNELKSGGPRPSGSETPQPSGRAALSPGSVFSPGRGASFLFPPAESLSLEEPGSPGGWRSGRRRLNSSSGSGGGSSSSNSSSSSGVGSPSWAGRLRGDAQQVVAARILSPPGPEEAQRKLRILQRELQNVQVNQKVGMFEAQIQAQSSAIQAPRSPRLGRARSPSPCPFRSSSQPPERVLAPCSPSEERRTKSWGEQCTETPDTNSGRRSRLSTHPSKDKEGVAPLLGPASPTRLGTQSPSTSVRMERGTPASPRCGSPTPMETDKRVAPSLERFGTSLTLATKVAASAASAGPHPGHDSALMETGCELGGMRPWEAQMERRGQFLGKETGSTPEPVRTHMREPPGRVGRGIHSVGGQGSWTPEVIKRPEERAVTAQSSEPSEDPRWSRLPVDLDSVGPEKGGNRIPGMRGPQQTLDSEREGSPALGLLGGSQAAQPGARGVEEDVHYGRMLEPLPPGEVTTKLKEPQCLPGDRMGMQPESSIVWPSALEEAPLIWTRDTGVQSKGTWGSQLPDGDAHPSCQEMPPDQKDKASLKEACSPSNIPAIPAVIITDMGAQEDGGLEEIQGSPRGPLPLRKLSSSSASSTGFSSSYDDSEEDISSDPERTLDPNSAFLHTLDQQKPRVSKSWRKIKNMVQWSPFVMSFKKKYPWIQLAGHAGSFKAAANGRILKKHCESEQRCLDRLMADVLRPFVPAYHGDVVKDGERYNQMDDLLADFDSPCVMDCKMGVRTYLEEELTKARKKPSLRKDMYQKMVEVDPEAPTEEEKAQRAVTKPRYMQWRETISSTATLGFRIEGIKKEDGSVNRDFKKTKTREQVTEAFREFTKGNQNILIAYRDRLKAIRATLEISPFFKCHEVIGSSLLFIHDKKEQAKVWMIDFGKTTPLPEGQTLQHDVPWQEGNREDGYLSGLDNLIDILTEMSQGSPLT

Some entries whose results are on file:
> print(dat)
                              record.smiles            test.target  reported.value
1  C[C@H]1CN(Cc2c[nH]nc2-c2ccc3[nH]c(=O)oc3c2)CCN1c1ccc(C(F)(F)F)cn1  Kinase (Mus musculus)        < 100 nM
2  O=c1[nH]c(=O)c2cc(-c3n[nH]cc3CN3C4CCC3CN(c3ccc(C(F)(F)F)cn3)C4)ccc2o1  Kinase (Mus musculus)        < 100 nM

Next:
Problem: Value lookup for IC50; key = C[C@@H]1CN(Cc2c[nH]nc2-c2ccc3c(c2)CNC(=O)O3)CCN1c1cccc(C(F)(F)F)c1
Solution: < 100 nM
